Origin of measurements: ChEMBL document CHEMBL1152279

Target: Histamine H2 receptor (Homo sapiens)
Assay: Activity at human recombinant histamine H2 receptor-Gsalpha fusion protein expressed in Sf9 cells by steady-state GTPase activity assay relative to histamine
Reported Activity is given for each of the following compounds.
experimentalReadout: Activity

1. CC(CC(=O)/N=C(\N)NCCCc1c[nH]cn1)c1ccccc1 (centres undefined) | 1800%
2. CC(CC(=O)NC(=N)NCCCc1c[nH]cn1)c1cccs1 (centres undefined) | 1160%
3. N=C(NCCCc1c[nH]cn1)NC(=O)CC(c1ccccc1)c1nccs1 (centres undefined) | 1000%
4. N=C(NCCCc1c[nH]cn1)NC(=O)CC(c1ccccc1)c1ccccc1 | 1500%

* * *

Biological target: Histamine H4 receptor (Homo sapiens)
Sequence (Q9H3N8 whole entry, the tested form may be a part): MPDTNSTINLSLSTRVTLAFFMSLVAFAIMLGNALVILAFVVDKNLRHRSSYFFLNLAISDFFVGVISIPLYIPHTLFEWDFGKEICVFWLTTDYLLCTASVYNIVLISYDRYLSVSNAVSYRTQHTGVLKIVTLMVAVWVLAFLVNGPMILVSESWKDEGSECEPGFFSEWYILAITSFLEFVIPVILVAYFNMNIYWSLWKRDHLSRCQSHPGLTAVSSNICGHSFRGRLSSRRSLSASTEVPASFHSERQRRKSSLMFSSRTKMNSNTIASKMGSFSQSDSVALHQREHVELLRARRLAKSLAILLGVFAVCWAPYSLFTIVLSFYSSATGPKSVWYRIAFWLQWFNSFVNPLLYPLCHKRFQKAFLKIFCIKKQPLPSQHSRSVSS
Experiment: Activity at human recombinant histamine H4 receptor-RGS19 fusion protein expressed in Sf9 cells coexpressing Galphai2 and G-beta-1-gamma-2 by steady-state GTPase activity assay
experimentalReadout: EC50 (nM)

1. NC(=NCCCc1cnc[nH]1)NC(=O)CC(c1ccccc1)c1ccccc1 | 8.6
2. CC(CC(=O)NC(N)=NCCCc1cnc[nH]1)c1cccs1 (centres undefined) | 6.3
3. CC(CC(=O)NC(N)=NCCCc1cnc[nH]1)c1ccccc1 (centres undefined) | 15.3
4. NC(=NCCCc1cnc[nH]1)NC(=O)CC(c1ccccc1)c1nccs1 (centres undefined) | 66.3

* * *

Biological target: Histamine H2 receptor (Homo sapiens, UniProt P25021)
Sequence (P25021 whole entry, the tested form may be a part): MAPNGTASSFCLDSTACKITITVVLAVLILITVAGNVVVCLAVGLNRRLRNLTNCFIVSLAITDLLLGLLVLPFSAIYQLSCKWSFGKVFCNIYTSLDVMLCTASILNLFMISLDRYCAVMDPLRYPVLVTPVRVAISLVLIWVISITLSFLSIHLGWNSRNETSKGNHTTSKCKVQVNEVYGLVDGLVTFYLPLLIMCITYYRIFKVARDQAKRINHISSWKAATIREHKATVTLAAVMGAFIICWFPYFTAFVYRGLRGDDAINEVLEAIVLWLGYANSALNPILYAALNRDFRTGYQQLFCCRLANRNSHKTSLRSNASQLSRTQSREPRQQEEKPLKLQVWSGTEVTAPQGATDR
Assay: Activity at human recombinant histamine H2 receptor-Gsalpha fusion protein expressed in Sf9 cells by steady-state GTPase activity assay
Reported EC50 is given for each of the following compounds.
experimentalReadout: EC50 (nM)

1. NC(=NCCCc1cnc[nH]1)NC(=O)CC(c1ccccc1)c1nccs1 (centres undefined) | 120
2. CC(CC(=O)NC(N)=NCCCc1cnc[nH]1)c1ccccc1 (centres undefined) | 67
3. NC(=NCCCc1cnc[nH]1)NC(=O)CC(c1ccccc1)c1ccccc1 | 78
4. CC(CC(=O)NC(N)=NCCCc1cnc[nH]1)c1cccs1 (centres undefined) | 109

* * *

Target: Histamine H2 receptor (Cavia porcellus) (UniProt P47747)
Sequence (P47747 whole entry, the tested form may be a part): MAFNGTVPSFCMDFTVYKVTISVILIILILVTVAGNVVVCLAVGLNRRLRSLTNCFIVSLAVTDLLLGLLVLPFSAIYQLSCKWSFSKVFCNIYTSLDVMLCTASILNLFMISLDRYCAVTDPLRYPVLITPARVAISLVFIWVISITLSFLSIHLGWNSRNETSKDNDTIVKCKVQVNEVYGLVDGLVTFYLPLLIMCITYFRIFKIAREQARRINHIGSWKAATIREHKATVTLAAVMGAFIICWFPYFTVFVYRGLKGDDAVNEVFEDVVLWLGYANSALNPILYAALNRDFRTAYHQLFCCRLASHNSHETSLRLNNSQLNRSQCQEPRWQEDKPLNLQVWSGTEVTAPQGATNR
Assay: Agonist activity at histamine H2 receptor in guinea pig spontaneously beating right atrium assessed as positive chronotropic activity relative to histamine
Assay type: functional, tissue-based
Settings: Cardiac atrium
Reported Emax is given for each of the following compounds.
experimentalReadout: Emax (%)

1) N=C(NCCCc1c[nH]cn1)NC(=O)C1CCCCC1 | 102
2) N=C(NCCCc1c[nH]cn1)NC(=O)CC(c1ccc(F)cc1)c1ccccn1 (stereo unspecified) | 100
3) CC(CC(=O)/N=C(\N)NCCCc1c[nH]cn1)c1ccccc1 (stereo unspecified) | 99
4) N=C(NCCCc1c[nH]cn1)NC(=O)CC(c1ccc(Br)cc1)c1ccc(Br)cc1 | 60
5) N=C(NCCCc1c[nH]cn1)NC(=O)CCCC1CCCCC1 | 89
6) N=C(NCCCc1c[nH]cn1)NC(=O)C(c1ccccc1)c1ccccc1 | 69
7) N=C(NCCCc1c[nH]cn1)NC(=O)c1ccccc1 | 89
8) CC(CC(=O)NC(=N)NCCCc1c[nH]cn1)c1cccs1 (stereo unspecified) | 99
9) N=C(NCCCc1c[nH]cn1)NC(=O)CC(c1ccc(Cl)cc1)c1ccc(Cl)cc1 | 60
10) N=C(NCCCc1c[nH]cn1)NC(=O)CCc1ccccc1 | 97
11) CC(CC(=O)NC(=N)NCCCc1c[nH]cn1)c1nccs1 (stereo unspecified) | 91

* * *

Target: Histamine H2 receptor (Homo sapiens)
Assay: Activity at human recombinant histamine H2 receptor-Gsalpha fusion protein expressed in Sf9 cells by steady-state GTPase activity assay relative to histamine
experimentalReadout: Efficacy

1. CC(CC(=O)NC(=N)NCCCc1c[nH]cn1)c1cccs1 (centres undefined) | 0.97
2. CC(CC(=O)/N=C(\N)NCCCc1c[nH]cn1)c1ccccc1 (centres undefined) | 0.87
3. N=C(NCCCc1c[nH]cn1)NC(=O)CC(c1ccccc1)c1nccs1 (centres undefined) | 0.8
4. N=C(NCCCc1c[nH]cn1)NC(=O)CC(c1ccccc1)c1ccccc1 | 0.69

* * *

Reported Kb is given for each of the following molecules.
Target: Histamine H1 receptor (Homo sapiens) (UniProt P35367)
Sequence (P35367 whole entry): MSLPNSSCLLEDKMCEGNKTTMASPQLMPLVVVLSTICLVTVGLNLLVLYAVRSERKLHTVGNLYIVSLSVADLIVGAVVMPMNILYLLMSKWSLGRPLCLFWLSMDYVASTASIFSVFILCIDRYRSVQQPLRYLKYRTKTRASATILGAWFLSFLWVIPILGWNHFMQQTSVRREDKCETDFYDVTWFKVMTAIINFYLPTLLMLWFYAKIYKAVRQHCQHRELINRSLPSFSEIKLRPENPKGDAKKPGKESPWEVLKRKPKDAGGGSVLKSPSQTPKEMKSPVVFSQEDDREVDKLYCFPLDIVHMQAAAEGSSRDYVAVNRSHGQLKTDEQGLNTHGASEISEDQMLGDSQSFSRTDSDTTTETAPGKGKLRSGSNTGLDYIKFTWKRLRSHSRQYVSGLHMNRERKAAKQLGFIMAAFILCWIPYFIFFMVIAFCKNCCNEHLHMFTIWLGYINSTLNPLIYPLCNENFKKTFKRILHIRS
Assay: Antagonist activity at histamine H1 receptor in human U373 MG cells assessed as inhibition of histamine-induced intracellular calcium level preincubated for 15 mins prior to histamine challenge
Type: functional, cell-based
Conditions: U-373MG ATCC
experimentalReadout: Kb (µM)

1) N=C(NCCCc1c[nH]cn1)NC(=O)c1ccccc1 | 15.8
2) CC(CCNC(=N)NC(=O)CCc1c[nH]cn1)c1ccccc1 (centres undefined) | 9.3
3) N=C(NCCCc1c[nH]cn1)NC(=O)CC1CCCCC1 | 4.3
4) N=C(NCCCc1c[nH]cn1)NC(=O)CC(c1ccccc1)c1ccccn1 (centres undefined) | 4.9

* * *

Biological target: Histamine H2 receptor (Cavia porcellus) (UniProt P47747)
Assay: Activity at guinea pig recombinant histamine H2 receptor-Gsalpha fusion protein expressed in Sf9 cells by steady-state GTPase activity assay relative to histamine
experimentalReadout: Efficacy

1. CC(CC(=O)NC(=N)NCCCc1c[nH]cn1)c1cccs1 (centres undefined) | 1.05
2. CC(CC(=O)/N=C(\N)NCCCc1c[nH]cn1)c1ccccc1 (centres undefined) | 1.03
3. N=C(NCCCc1c[nH]cn1)NC(=O)CC(c1ccccc1)c1ccccc1 | 0.93
4. N=C(NCCCc1c[nH]cn1)NC(=O)CC(c1ccccc1)c1nccs1 (centres undefined) | 0.94

* * *

Target: Histamine H2 receptor (Cavia porcellus) (UniProt P47747)
Assay: Agonist activity at histamine H2 receptor in guinea pig spontaneously beating right atrium assessed as positive chronotropic activity relative to histamine
Format: functional, tissue-based
Conditions: Cardiac atrium
Reported Emax is given for each of the following molecules.
experimentalReadout: Emax (%)

1. N=C(NCCCc1c[nH]cn1)NCCC(c1ccc(F)cc1)c1ccccn1 (stereo unspecified) | 100
2. N=C(NCCCc1c[nH]cn1)NC(=O)CCCCc1ccccc1 | 86
3. N=C(NCCCc1c[nH]cn1)NC(=O)CC(c1ccc(F)c(F)c1)c1nccs1 (stereo unspecified) | 90
4. N=C(NCCCc1c[nH]cn1)NC(=O)Cc1ccccc1 | 97
5. N=C(NCCCc1c[nH]cn1)NC(=O)CCC1CCCCC1 | 98
6. CC(C(=O)NC(=N)NCCCc1c[nH]cn1)C1CCCCC1 (stereo unspecified) | 86
7. N=C(NCCCc1c[nH]cn1)NC(=O)CC(c1ccccc1)c1ccccc1 | 85
8. N=C(NCCCc1c[nH]cn1)NC(=O)CC(c1ccccc1)c1ccc(F)c(F)c1 (stereo unspecified) | 81
9. CC(CC(=O)NC(=N)NCCCc1c[nH]cn1)C1CCCCC1 (stereo unspecified) | 101
10. CC(C(=O)NC(=N)NCCCc1c[nH]cn1)c1ccccc1 (stereo unspecified) | 88
11. N=C(NCCCc1c[nH]cn1)NC(=O)CC1CCCCC1 | 95

* * *

Target: Histamine H2 receptor (Cavia porcellus, UniProt P47747)
Assay: Activity at guinea pig recombinant histamine H2 receptor-Gsalpha fusion protein expressed in Sf9 cells by steady-state GTPase activity assay
pEC50: −log10 of the molar value.
Reported pEC50 is given for each of the following compounds.
experimentalReadout: pEC50

1. CC(CC(=O)NC(N)=NCCCc1cnc[nH]1)c1cccs1 (centres undefined) | 7.68
2. NC(=NCCCc1cnc[nH]1)NC(=O)CC(c1ccccc1)c1nccs1 (centres undefined) | 7.85
3. CC(CC(=O)NC(N)=NCCCc1cnc[nH]1)c1ccccc1 (centres undefined) | 7.92
4. NC(=NCCCc1cnc[nH]1)NC(=O)CC(c1ccccc1)c1ccccc1 | 8.22

* * *

Target: Histamine H2 receptor (Cavia porcellus) (UniProt P47747)
Assay: Agonist activity at histamine H2 receptor in guinea pig spontaneously beating right atrium assessed as positive chronotropic activity relative to histamine
Assay type: functional, tissue-based
Conditions: Cardiac atrium
experimentalReadout: Activity

1) N=C(NCCCc1c[nH]cn1)NC(=O)Cc1ccccc1 | 546%
2) N=C(NCCCc1c[nH]cn1)NC(=O)C1CCCCC1 | 2090%
3) CC(C(=O)NC(=N)NCCCc1c[nH]cn1)c1ccccc1 (stereo not given) | 28%
4) N=C(NCCCc1c[nH]cn1)NC(=O)CC(c1ccccc1)c1nccs1 (stereo not given) | 2630%
5) CC(CC(=O)NC(=N)NCCCc1c[nH]cn1)c1ccccn1 (stereo not given) | 2610%
6) N=C(NCCCc1c[nH]cn1)NCCC(c1ccc(F)cc1)c1ccccn1 (stereo not given) | 10200%
7) N=C(NCCCc1c[nH]cn1)NC(=O)CC(c1ccccc1)c1ccc(F)cc1 (stereo not given) | 1830%
8) N=C(NCCCc1c[nH]cn1)NC(=O)CC(c1ccc(F)c(F)c1)c1nccn1Cc1ccccc1 (stereo not given) | 251%
9) N=C(NCCCc1c[nH]cn1)NC(=O)CC(c1ccccc1)c1ccccn1 (stereo not given) | 1960%
10) N=C(NCCCc1c[nH]cn1)NC(=O)c1ccccc1 | 86%
